assayNotes: Binding Affinity was tested on relative proportion of High Affinity Site of Dopamine receptor D3
parameter: pKi
Please report pKi as the negative decimal logarithm of the molar concentration, giving only the number.

Suppose we examine the compound CCCN(CCC)C1CC=C(C#C[Si](C)(C)C)CC1 (stereo unspecified) ; what pKi value has been reported?
7.64

Source listed as BindingDB's records for doi:10.1021/jm991098z.
